# Test system: SK-ES-1
# experiment-summary: relative viability vs DMSO control (72 h) (fraction); higher = more viable cells
# study-conditions: 10 µM

compound	relative viability
CC1(C)CC=C(c2nc(C3CC(C)(C)OC(C)(C)C3)ccc2NC(=O)c2nc(C#N)c[nH]2)CC1 [Edicotinib]	0.969
COCCNc1cc(NC(=O)N2CCCc3cc(CN4CCN(C)CC4=O)c(C=O)nc32)ncc1C#N [Roblitinib]	0.74
O=c1sn(-c2cccc3ccccc23)c(=O)n1Cc1ccccc1 [Tideglusib]	0.923
CCN(CC)CCNC(=O)c1c(C)[nH]c(/C=C2\C(=O)Nc3ccc(F)cc32)c1C [Sunitinib]	0.0034
CO[C@H]1C[C@@H]2CC[C@@H](C)[C@@](O)(O2)C(=O)C(=O)N2CCCC[C@H]2C(=O)O[C@H]([C@H](C)C[C@@H]2CC[C@@H](OCCO)[C@H](OC)C2)CC(=O)[C@H](C)/C=C(\C)[C@@H](O)[C@@H](OC)C(=O)[C@H](C)C[C@H](C)/C=C/C=C/C=C/1C [Certican]	0.499
CNC(=O)c1ccccc1Sc1ccc2c(/C=C/c3ccccn3)n[nH]c2c1 [Axitinib]	0.0154
O=S(=O)(c1cccc2cnccc12)N1CCCNCC1 [Fasudil]	1.04
